- EXPERIMENTAL_TARGET: T1, human IL-1RAcP on 293T/17-FR cells (human, UniProt Q9NPH3 21-570)
- T1 sequence (looked up): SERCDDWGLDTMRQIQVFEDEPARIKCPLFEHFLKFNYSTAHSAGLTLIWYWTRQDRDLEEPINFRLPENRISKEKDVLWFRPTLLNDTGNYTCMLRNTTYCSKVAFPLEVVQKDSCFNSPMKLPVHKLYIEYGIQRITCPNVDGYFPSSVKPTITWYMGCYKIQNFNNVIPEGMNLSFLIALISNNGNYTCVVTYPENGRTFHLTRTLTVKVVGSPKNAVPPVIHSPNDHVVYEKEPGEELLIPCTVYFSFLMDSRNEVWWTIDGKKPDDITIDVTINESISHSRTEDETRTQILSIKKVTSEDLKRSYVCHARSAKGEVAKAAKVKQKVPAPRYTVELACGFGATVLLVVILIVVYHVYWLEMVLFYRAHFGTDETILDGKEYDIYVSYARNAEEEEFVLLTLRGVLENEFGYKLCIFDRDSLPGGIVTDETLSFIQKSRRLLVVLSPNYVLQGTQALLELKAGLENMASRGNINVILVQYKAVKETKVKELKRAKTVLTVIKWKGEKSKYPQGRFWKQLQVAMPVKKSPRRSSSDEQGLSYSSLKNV
- ASSAY_REMARKS: cell-based or functional assay
In this section we review reported functional reporter gene assay (% inhibition), 1 µg/mL mAb values for a set of binders.
Number first, unit second.

{"BINDER": "P013.S.01.B.A04 (antibody, V domains shown, rabbit monoclonal antibody; also called P013.A.00085.C03) VH: QEQLEESGGGLVKPGGTLTLTCKASGIDFSSYYYMCWVRQAPGKGLEWIACIFIGYGDVTWYASWAKGRFTISKASSTTVTLQMTSLTAADTATYFCARALGSSGYRVNLWGPGTLVTVSS VL: ALVMTQTPSSVSAAVGGTVTINCQASENIYSSLAWYQQKPGQPPKLLIYDASDLASGVPSRFKGSGSGKEFTLTISDLESDDAATYYCQQGYYSGGTDNDVFGGGTEVVVK", "MEASURED_RESULT": "97%"}
{"BINDER": "P013.S.02.B.A01 (antibody, V domains shown, rabbit monoclonal antibody; also called P013.A.00087.A07) VH: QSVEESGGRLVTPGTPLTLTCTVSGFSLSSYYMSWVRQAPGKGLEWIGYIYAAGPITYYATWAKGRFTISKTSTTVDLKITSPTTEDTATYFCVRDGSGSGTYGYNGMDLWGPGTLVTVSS VL: AYDMTQTPASVEAAVGGTVTIKCQASQSISNWLAWYQQKPGQRPKLLIYRASTLASGVSSRFKGSGSGTQFTLTISGVESADAATYYCQQGASTTDVDNVFGGGTEVVVK", "MEASURED_RESULT": "67%"}

Q: Need functional reporter gene assay (% inhibition), 1 µg/mL mAb, item P013.S.01.B.H06 (antibody, V domains shown, rabbit monoclonal antibody; also called P013.A.00086.B03) VH: LEQSGGGGEGGLVKPGGSLELCCKASGFSLSSSYWICWVRQAPGKGLEWIGCIYVGSSGSTYYASWVSGRFTLSRDIDQSTGCLQLNSLTAADTAMYYCARDIYGSTNGYDLWGQGTLVTVSS VL: ALVMTQTPSPVSAAVGGTVTINCQASEDIYSNLAWFQQKPGQPPKLLIYQASKLASGVPSRFSGSGSGTEFTLTISGLQSDDVATYYCLGVGTYISGDGSLDNAFGGGTEVVVK
A: 88%
